Biological target: human RXFP1 (Homo sapiens, UniProt Q9HBX9)
Construct: expressed in transfected cells
Assay: RXFP1 cAMP assay (hRXFP1 HEK293 cAMP assay, HTRF)
Assay type: cell-based
Details: HEK293 cells stably expressing human RXFP1, 30 min at room temperature, read-out: cAMP hRXFP1 HEK293 Assay EC50
measurementType: pEC50
Numbers only, as −log10 of the molar value.

Tested on human RXFP1 (Homo sapiens, UniProt Q9HBX9): COc1ccc(-c2cc(CO)on2)cc1C(=O)N[C@H]1[C@@H](C(=O)Nc2ccc(F)c(C(F)(F)F)c2)[C@H]2CC[C@@H]1/C2=C\C1CC1 [Example 423] . Observed pEC50: 7.55

Tested on human RXFP1 (Homo sapiens, UniProt Q9HBX9): COc1ccc(N2CC(=O)NC2=O)cc1C(=O)N[C@H]1[C@@H](C(=O)Nc2ccc(F)c(C(F)(F)F)c2)[C@H]2CC[C@@H]1/C2=C\C1CC1 [compound 697] . Observed pEC50: 6.01

Tested on human RXFP1 (Homo sapiens, UniProt Q9HBX9): COc1cc(F)c(F)cc1C(=O)N[C@@H]1C2CCC(/C2=C/c2ccccc2)[C@@H]1C(=O)Nc1cccc(S(=O)(=O)C(F)(F)F)c1 (stereo partly drawn) [Example 127] . Observed pEC50: 7.31

Tested on human RXFP1 (Homo sapiens, UniProt Q9HBX9): COc1ccccc1CNC(=O)[C@@H]1[C@H](NC(=O)c2cc(C3=NOC4COCC34)ccc2OC)[C@@H]2CC[C@H]1/C2=C/C1CC1 (stereo partly drawn) [compound 681] . Observed pEC50: 6.22

Tested on human RXFP1 (Homo sapiens, UniProt Q9HBX9): COc1ccc(N2CC[C@H](O)C2=O)cc1C(=O)N[C@H]1[C@@H](C(=O)Nc2ccc(F)c(C(F)(F)F)c2)[C@H]2CC[C@@H]1/C2=C\C1CC1 [compound 627] . Observed pEC50: 6.76

Next:
Tested on human RXFP1 (Homo sapiens, UniProt Q9HBX9): COc1ccc(-c2cc([C@@H](C)O)on2)cc1C(=O)N[C@H]1[C@@H](C(=O)Nc2ccc(F)c(C(F)(F)F)c2)[C@H]2CC[C@@H]1/C2=C\C1CC1 [compound 500] . Observed pEC50: 7.96

====

Target: human RXFP1 (Homo sapiens)
Construct: expressed in transfected cells
Sequence (Q9HBX9 1-757): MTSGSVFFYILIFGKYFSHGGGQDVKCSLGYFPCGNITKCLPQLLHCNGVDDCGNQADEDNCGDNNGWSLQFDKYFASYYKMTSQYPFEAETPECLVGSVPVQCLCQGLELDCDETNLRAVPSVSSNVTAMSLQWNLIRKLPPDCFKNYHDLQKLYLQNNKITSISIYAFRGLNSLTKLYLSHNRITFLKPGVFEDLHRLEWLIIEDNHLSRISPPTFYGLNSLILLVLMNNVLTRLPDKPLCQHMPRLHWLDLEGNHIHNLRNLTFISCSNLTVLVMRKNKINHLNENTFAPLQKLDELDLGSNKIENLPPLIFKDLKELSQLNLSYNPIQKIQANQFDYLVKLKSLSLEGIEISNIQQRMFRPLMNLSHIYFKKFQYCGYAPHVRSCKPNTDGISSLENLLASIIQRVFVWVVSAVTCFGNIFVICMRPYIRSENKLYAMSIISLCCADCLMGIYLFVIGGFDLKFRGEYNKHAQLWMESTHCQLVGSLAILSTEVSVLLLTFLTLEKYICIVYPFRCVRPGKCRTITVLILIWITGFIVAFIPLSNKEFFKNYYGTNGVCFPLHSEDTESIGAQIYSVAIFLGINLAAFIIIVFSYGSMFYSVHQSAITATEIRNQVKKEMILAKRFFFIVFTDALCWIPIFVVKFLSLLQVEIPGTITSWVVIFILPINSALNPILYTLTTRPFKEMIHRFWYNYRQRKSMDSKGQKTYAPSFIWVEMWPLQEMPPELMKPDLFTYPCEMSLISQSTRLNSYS
Assay: RXFP1 cAMP assay (hRXFP1 HEK293 cAMP assay, HTRF)
Format: cell-based
Settings: HEK293 cells stably expressing human RXFP1, 30 min at room temperature, read-out: cAMP hRXFP1 HEK293 Assay EC50
pEC50: −log10 of the molar value.
Decide using pEC50: a value greater than or equal to 8 is MET, a smaller one is NOT MET.

Example entries begin here.
Q: Quick check, pEC50 >= 8? COc1ccc(C2=NO[C@H]3C[C@H](CO)C[C@@H]23)cc1C(=O)N[C@H]1[C@@H](C(=O)Nc2ccc(F)c(C(F)(F)F)c2)[C@H]2CC[C@@H]1/C2=C\C1C[C@@H](F)[C@@H](F)C1 (some centres unmarked) [compound 828]
Result: MET

Q: Quick check, pEC50 >= 8? COc1ccc(C2=NOC3(CCNC3)C2)cc1C(=O)N[C@H]1[C@@H](C(=O)Nc2ccc(F)c(C(F)(F)F)c2)[C@H]2CC[C@@H]1/C2=C\C1CC1 (some centres unmarked) [compound 593]
Result: NOT MET

Q: Quick check, pEC50 >= 8? COc1ccc(C2=NOC3CC(C)(CO)CC23)cc1C(=O)N[C@H]1[C@@H](C(=O)Nc2ccc(F)c(C(F)(F)F)c2)[C@H]2CC[C@@H]1/C2=C\C1CCCC1 (some centres unmarked) [compound 748]
Result: MET

Q: Quick check, pEC50 >= 8? COc1cc(C2CC2)c(C2=NOC3COCC23)cc1C(=O)N[C@H]1[C@@H](C(=O)Nc2ccc(F)c(C(F)(F)F)c2)[C@H]2CC[C@@H]1/C2=C\C1CC1 (single isomer, unassigned) [compound 695]
Result: NOT MET

Q: Quick check, pEC50 >= 8? COc1cc(F)c(F)cc1C(=O)N[C@@H]1C2CCC(/C2=C/c2ccc(C#N)cc2)[C@@H]1C(=O)Nc1ccc(F)c(C(F)(F)F)c1 (some centres unmarked) [compound 62]
Result: NOT MET

Q: Quick check, pEC50 >= 8? COc1ccc(-c2cc(C(OC(=O)NC3CCC3)C(=O)O)ccc2F)cc1C(=O)N[C@H]1[C@@H](C(=O)Nc2ccc(F)c(C(F)(F)F)c2)[C@H]2CC[C@@H]1/C2=C\C1CC(F)(F)C1 (some centres unmarked) [compound 939]
Result: MET

Q: Quick check, pEC50 >= 8? COc1ccc(C2=NOC3COCC23)cc1C(=O)N[C@H]1[C@@H](C(=O)NCC2CCC2)[C@H]2CC[C@@H]1/C2=C\C1CC1 (some centres unmarked) [compound 597]
Result: NOT MET

Next:
Q: Quick check, pEC50 >= 8? COc1ccc(-c2cc([C@H](OC(=O)NC3CCC3)C(F)(F)F)ccc2F)cc1C(=O)N[C@@H]1C2CCC(/C2=C/C2CCCC2)[C@@H]1C(=O)Nc1ccc(F)c(C(F)(F)F)c1 (some centres unmarked) [compound 922]
Result: MET

Provenance of the data: patent US20250221966A1
